Taken from patent US20250051277A1.

Can you tell me Condition 1 Conversion (%) for the items I'm about to list?
Type: physicochemical
conditions used: SGF with pepsin, pH 1.5, 37° C., 0.5 mM; time 24 h
Give a bare numeral; the unit % is implied.

stdin: Fill in: Condition 1 Conversion (%) of COc1ccc([C@@]23CC/C(=N\NC(=O)Nc4ccc(N5CCN(C)CC5)cc4)C[C@@H]2N(C)CC3)cc1OC [Compound 257] is ___
stdout: 100

stdin: Condition 1 Conversion (%) lookup needed for COc1ccc([C@@]23CCC(=NNC(=O)C45CC6CC(CC(C6)C4)C5)C[C@@H]2N(C)CC3)cc1OC [Compound 271] , thanks.
stdout: 100

stdin: Given COc1ccc([C@@]23CC/C(=N\NC(=O)c4ccccc4C(=O)O)C[C@@H]2N(C)CC3)cc1OC [Compound 244] , state its recorded Condition 1 Conversion (%).
stdout: 100

stdin: Consider the compound shown here: COc1ccc([C@@]23CCC(=NOCC(=O)O)C[C@@H]2N(C)CC3)cc1OC [Compound 201] What is its recorded Condition 1 Conversion (%)?
stdout: 14.7

====

conditions used: 2 h, 10 μM
Consider the following compounds; for each one, report its Prodrug (%) remaining, Human Plasma.
Value expressed in %; do not type the unit.

stdin: Could you tell me which Prodrug (%) remaining, Human Plasma is on file for CCC(C)(C)C(=O)OC1=C[C@@H]2N(C)CC[C@]2(c2ccc(OC)c(OC)c2)CC1 ?
stdout: 56.8

stdin: Recorded Prodrug (%) remaining, Human Plasma of COc1ccc([C@@]23CCC(OC(=O)c4cccc(C)c4C)=C[C@@H]2N(C)CC3)cc1OC , please.
stdout: 89.9

stdin: For CCC(C)C(=O)OC1=C[C@@H]2N(C)CC[C@]2(c2ccc(OC)c(OC)c2)CC1 (stereo partly shown) , what is its reported Prodrug (%) remaining, Human Plasma?
stdout: 3.0

stdin: Given the compound CCCC(CC)CC(=O)OC1=C[C@@H]2N(C)CC[C@]2(c2ccc(OC)c(OC)c2)CC1 (stereo partly shown) , what is its reported Prodrug (%) remaining, Human Plasma?
stdout: 51.6

stdin: # get_value(readout='Prodrug (%) remaining, Human Plasma', item= COc1ccc([C@@]23CCC(OC(=O)c4ccc(C(C)C)cc4)=C[C@@H]2N(C)CC3)cc1OC )
stdout: 91.3

====

Task for the reader: assign each of the following compounds its reported Condition 1 Conversion (%).
Assay type: physicochemical
conditions used: SGF with pepsin, pH 1.5, 37° C., 0.5 mM; time 30 min
Quick note: give the figure in %, leave out the unit.

stdin: Can you look up the measured Condition 1 Conversion (%) of COc1ccc(C23CCN(C)C2CC2(CC3)OCCO2)cc1OC (stereo not shown) for me?
stdout: 0

stdin: // lookup Condition 1 Conversion (%) for COc1ccc([C@@]23CCC(=NNC(=O)CC(CC(=O)O)CC(C)C)C[C@@H]2N(C)CC3)cc1OC (stereo partly shown)
stdout: 96.13

stdin: Value lookup for Condition 1 Conversion (%); key = COc1ccc([C@@]23CCC(=NOCCO)C[C@@H]2N(C)CC3)cc1OC
stdout: 0

stdin: Return reported Condition 1 Conversion (%); argument: COc1ccc([C@]23CCN(C)[C@H]2CC(OC)(OC)CC3)cc1OC (stereo in doubt)
stdout: 82.97

stdin: Bench note: what Condition 1 Conversion (%) did COc1ccc([C@@]23CC/C(=N\NC(=O)CCC(=O)O)C[C@@H]2N(C)CC3)cc1OC show?
stdout: 100

stdin: Give the measured Condition 1 Conversion (%) of CCON=C1CC[C@@]2(c3ccc(OC)c(OC)c3)CCN(C)[C@H]2C1 .
stdout: 0

stdin: Which value of Condition 1 Conversion (%) has been reported for COc1ccc([C@@]23CCN(C)[C@@H]2CC2(CC3)SCCS2)cc1OC in the records?
stdout: 0

stdin: Looking for the measured Condition 1 Conversion (%) of CCC(=O)OC1=C[C@@H]2N(C)CC[C@]2(c2ccc(OC)c(OC)c2)CC1 , can you help?
stdout: 0

stdin: Item under review: COc1ccc([C@@]23CC/C(=N/NC(=O)Nc4ccccc4Cl)C[C@@H]2N(C)CC3)cc1OC . Reported Condition 1 Conversion (%)?
stdout: 1

stdin: Report Condition 1 Conversion (%) for COc1ccc([C@@]23CCC(=NNC(=O)c4ccc(F)cc4)C[C@@H]2N(C)CC3)cc1OC please.
stdout: 100

stdin: For the compound shown here, COc1ccc([C@@]23CCC(OC(C)=O)=C[C@@H]2N(C)CC3)cc1OC , give the reported Condition 1 Conversion (%).
stdout: 0

stdin: Could you tell me which Condition 1 Conversion (%) is on file for COc1ccc([C@@]23CCC(OC(=O)C4CC4)=C[C@@H]2N(C)CC3)cc1OC ?
stdout: 0

stdin: Bench note: what Condition 1 Conversion (%) did COc1ccc([C@@]23CCC(=NOCC(=O)OC(C)(C)C)C[C@@H]2N(C)CC3)cc1OC show?
stdout: 0

stdin: Data request, read-out Condition 1 Conversion (%), for COc1ccc([C@@]23CCC(OC(=O)C(C)(C)C)=C[C@@H]2N(C)CC3)cc1OC
stdout: 0

stdin: Query: Condition 1 Conversion (%); subject: COc1ccc([C@]23CCN(C)[C@H]2CC2(CC3)SCCS2)cc1OC
stdout: 0

stdin: Which measured Condition 1 Conversion (%) value corresponds to COc1ccc([C@]23CCN(C)[C@H]2CC2(CC3)OCC(c3ccc([N+](=O)[O-])cc3)O2)cc1OC (stereo partly shown) ?
stdout: 0

====

I'd be grateful if you could share measured Condition 2 Conversion (%) for these entries.
Format: physicochemical
conditions used: DI water, 25° C., 0.5 mM; time 1 h

stdin: Dear colleague, I am looking for the recorded Condition 2 Conversion (%) of the following compound: COc1ccc([C@@]23CC/C(=N\NC(=O)NC[C@H]4CC[C@H](C(=O)O)CC4)C[C@@H]2N(C)CC3)cc1OC [Compound 258]
stdout: 0%

stdin: Given the compound COc1ccc([C@@]23CCC(=NOc4ccccc4)C[C@@H]2N(C)CC3)cc1OC [Compound 207] , what is its reported Condition 2 Conversion (%)?
stdout: 0%

stdin: Query (compound): COc1ccc([C@@]23CCC(=NOCc4ccccc4)C[C@@H]2N(C)CC3)cc1OC [Compound 208] ; field requested: Condition 2 Conversion (%)
stdout: 0%

stdin: Condition 2 Conversion (%) lookup needed for COc1ccc([C@@]23CC/C(=N\NC(=O)NCCc4cccs4)C[C@@H]2N(C)CC3)cc1OC [Compound 256] , thanks.
stdout: 0%

stdin: Value lookup for Condition 2 Conversion (%); key = COc1ccc([C@@]23CCC(=NNC(=O)C(=O)O)C[C@@H]2N(C)CC3)cc1OC [Compound 241]
stdout: 52%

stdin: Query: Condition 2 Conversion (%); subject: COc1ccc([C@@]23CCC(=NNC(C)=O)C[C@@H]2N(C)CC3)cc1OC [Compound 222]
stdout: 100%

stdin: Can you share its Condition 2 Conversion (%)? I mean this compound: COc1ccc([C@@]23CCC(=NNC(=O)c4ccc(Cl)cc4)C[C@@H]2N(C)CC3)cc1OC [Compound 240]
stdout: 43.3%

====

conditions used: 30 min, 5 μM
Give Mouse Plasma Compound 001 (%) for every item shown.
Report the figure in % without appending any unit label.

stdin: GET /values?readout=Mouse Plasma Compound 001 (%)&item= COc1ccc([C@@]23CCC(OC(=O)c4ccccc4C)=C[C@@H]2N(C)CC3)cc1OC
stdout: 44.5

stdin: Consider the compound shown here: C=C(C)C(=O)OC1=C[C@@H]2N(C)CC[C@]2(c2ccc(OC)c(OC)c2)CC1 What is its recorded Mouse Plasma Compound 001 (%)?
stdout: 61.9

stdin: Would you mind telling me what Mouse Plasma Compound 001 (%) value was observed for COc1ccc([C@@]23CCC(OC(=O)C4CC4)=C[C@@H]2N(C)CC3)cc1OC ?
stdout: 70.8

stdin: Fill in: Mouse Plasma Compound 001 (%) of COc1ccc([C@@]23CCC(OC(=O)c4ccc(C(C)C)cc4)=C[C@@H]2N(C)CC3)cc1OC is ___
stdout: 29.63

stdin: Given COc1ccc([C@@]23CCC(OC(=O)c4ccc(F)cc4)=C[C@@H]2N(C)CC3)cc1OC , state its recorded Mouse Plasma Compound 001 (%).
stdout: 51.6

stdin: I'd like to know its Mouse Plasma Compound 001 (%). The compound in question is COc1ccc([C@@]23CCC(OC(=O)CC(C)C)=C[C@@H]2N(C)CC3)cc1OC
stdout: 70.9

stdin: Which value of Mouse Plasma Compound 001 (%) has been reported for COc1ccc([C@@]23CCC(OC(=O)c4ccc(C#N)cc4)=C[C@@H]2N(C)CC3)cc1OC in the records?
stdout: 32.69

stdin: Mouse Plasma Compound 001 (%) for COc1ccc([C@@]23CCC(OC(=O)c4cccc(C(C)(C)C)c4)=C[C@@H]2N(C)CC3)cc1OC ?
stdout: 45.99

stdin: // query Mouse Plasma Compound 001 (%) value for entry COc1ccc([C@@]23CCC(OC(=O)C(C)(C)C)=C[C@@H]2N(C)CC3)cc1OC
stdout: 63.7

stdin: Tell me the measured Mouse Plasma Compound 001 (%) of C/C=C(\C)C(=O)OC1=C[C@@H]2N(C)CC[C@]2(c2ccc(OC)c(OC)c2)CC1 , please.
stdout: 36.3

stdin: Given the compound COc1ccc([C@@]23CCC(OC(=O)c4cccc(N(C)C)c4)=C[C@@H]2N(C)CC3)cc1OC , what is its reported Mouse Plasma Compound 001 (%)?
stdout: 81.1
